assay: Pharmacokinetic study in rabbits (plasma concentration by LC-MS); format: in vivo, rabbit; conditions: female, New Zealand White, rabbit, plasma, iv, 3.7 mg/kg, intravenous administration, 2 min, individual rabbits and analyses, read-out: Plasma conc.
Starred links: 1 amine or outer side, 2 acyl side, 3 side chain; linkers in the order of their positions; H or OH if unused. Positions of bridges follow the written chain, without caps; N, C: chain ends. Non-standard residues stand in square brackets, D forms with d. Residues, ends and D or L forms follow the SMILES beside them. TATA = O=C(CC[*:1])N1CN(C(=O)CC[*:2])CN(C(=O)CC[*:3])C1; Phe(4-F) = N[C@@H](Cc1ccc(F)cc1)C(=O)O; β3hR = N=C(N)NCCC[C@H](N)CC(=O)O
Measurement name: level at time molar at 2 min (µM)
Just the number please, in µM, no unit attached.

Request the reported level at time molar at 2 min associated with CC(C)C[C@@H]1NC(=O)[C@H](CCC(N)=O)NC(=O)[C@H](Cc2c[nH]cn2)NC(=O)[C@@H]2CSCCC(=O)N3CN(CN(C3)C(=O)CCSC[C@H](NC(=O)[C@@H](CO)NC(=O)[C@H](N)CCCNC(=N)N)C(=O)N[C@@H](Cc3ccc(F)cc3)C(=O)N[C@@H](CCCNC(=N)N)C(=O)N[C@@H](CC(C)C)C(=O)N3CCC[C@H]3C(=O)N2)C(=O)CCSC[C@@H](C(N)=O)NC(=O)C[C@H](CCCNC(=N)N)NC1=O [FXII900] (H-[dR][dS]C[Phe(4-F)]RLPCHQL[β3hR]C-NH2; linker 3-8-13 via TATA) 5.51

###

Assay: Plasma stability assay (residual FXIIa inhibitory activity after plasma incubation)
Format: in vitro ADME, human
Conditions: human, plasma, 37 °C, remaining FXIIa inhibitory activity; read-out: half-life in human plasma (converted)
Procedure: Peptide (2 μl of 2 mM in H2O) was added to 398 μl of citrated human plasma (Innovative Research) to obtain a final peptide concentration of 10 μM. The mixture was incubated in a water bath at 37 °C. […] The peptide/plasma samples were stored at −20 °C until the residual inhibitory activity of the peptides was measured in a FXIIa inhibition assay. […]
Starred links: 1 amine or outer side, 2 acyl side, 3 side chain; linkers in the order of their positions; H or OH if unused. Positions of bridges follow the written chain, without caps; N, C: chain ends. Non-standard residues stand in square brackets, D forms with d. Residues, ends and D or L forms follow the SMILES beside them. TATA = O=C(CC[*:1])N1CN(C(=O)CC[*:2])CN(C(=O)CC[*:3])C1; Phe(4-F) = N[C@@H](Cc1ccc(F)cc1)C(=O)O; β3hR = N=C(N)NCCC[C@H](N)CC(=O)O
Measurement name: half-life at 10 μM (h)
Just the number please, in h, no unit attached.

Request the reported half-life at 10 μM associated with CC(C)C[C@@H]1NC(=O)[C@H](CCC(N)=O)NC(=O)[C@H](Cc2c[nH]cn2)NC(=O)[C@@H]2CSCCC(=O)N3CN(CN(C3)C(=O)CCSC[C@H](NC(=O)[C@@H](CO)NC(=O)[C@H](N)CCCNC(=N)N)C(=O)N[C@@H](Cc3ccc(F)cc3)C(=O)N[C@@H](CCCNC(=N)N)C(=O)N[C@@H](CC(C)C)C(=O)N3CCC[C@H]3C(=O)N2)C(=O)CCSC[C@@H](C(N)=O)NC(=O)C[C@H](CCCNC(=N)N)NC1=O [FXII900] (H-[dR][dS]C[Phe(4-F)]RLPCHQL[β3hR]C-NH2; linker 3-8-13 via TATA) 128

###

assay: Pharmacokinetic study in pigs (plasma concentration by LC-MS); assay type: in vivo, pig; details: both sexes, Swiss large white, pig, plasma, iv, 4 mg/kg, intravenous administration, 120 min, individual pigs and analyses, read-out: Plasma conc.
Starred links: 1 amine or outer side, 2 acyl side, 3 side chain; linkers in the order of their positions; H or OH if unused. Positions of bridges follow the written chain, without caps; N, C: chain ends. Non-standard residues stand in square brackets, D forms with d. Residues, ends and D or L forms follow the SMILES beside them. TATA = O=C(CC[*:1])N1CN(C(=O)CC[*:2])CN(C(=O)CC[*:3])C1; Phe(4-F) = N[C@@H](Cc1ccc(F)cc1)C(=O)O; β3hR = N=C(N)NCCC[C@H](N)CC(=O)O
Measurement name: level at time molar at 2 h (nM)
Just the number please, in nM, no unit attached.

Request the reported level at time molar at 2 h associated with CC(C)C[C@@H]1NC(=O)[C@H](CCC(N)=O)NC(=O)[C@H](Cc2c[nH]cn2)NC(=O)[C@@H]2CSCCC(=O)N3CN(CN(C3)C(=O)CCSC[C@H](NC(=O)[C@@H](CO)NC(=O)[C@H](N)CCCNC(=N)N)C(=O)N[C@@H](Cc3ccc(F)cc3)C(=O)N[C@@H](CCCNC(=N)N)C(=O)N[C@@H](CC(C)C)C(=O)N3CCC[C@H]3C(=O)N2)C(=O)CCSC[C@@H](C(N)=O)NC(=O)C[C@H](CCCNC(=N)N)NC1=O [FXII900] (H-[dR][dS]C[Phe(4-F)]RLPCHQL[β3hR]C-NH2; linker 3-8-13 via TATA) 278
